- Test Details: E. coli acrAB mutant growth effects, primary screen, E. coli filamentation inducers, strain DRC39, OD650, 24 h (AID 1178);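 further: growth measured as culture turbidity by optical density at 650 nm; test concentration not given here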
- Assay Context: higher = more signal, called active from +8 up or from −8 down
Can you tell me z-score for the items I'm about to list?
Form field (numeric): enter value without unit.

GET /values?readout=z-score&item= CCC(=O)[C@@]1(O)C(=O)N2C(=C3C(=O)OCC[C@@H]31)N(Cc1ccccc1)C(C)=C(C(=O)OC)[C@H]2c1ccccc1
0.533

So what does the record say about z-score for COC(=O)CC=C[C@@H](C)[C@@H](C=NOCC[C@@H]1C=C[C@H](OC(C)=O)[C@@H](COC(C)=O)O1)OC ?
0.157

What does the record list as z-score for COC(=O)[C@H](C)NC(=O)CCC1CC(OC(=O)NCc2ccc3c(c2)OCO3)CC2(CCCC(COC(=O)NCC3CCCCC3)O2)O1 (stereo partly drawn) ?
0.49

Bench note: what z-score did COC(=O)CC=C[C@@H](C)[C@@H](C=NOC[C@H]1O[C@H](c2ccccc2)C=C[C@@H]1Oc1ccc(OC)cc1)NS(=O)(=O)c1ccc(C)cc1 show?
-1.01

Give the measured z-score of C#CCCCON=C1[C@H]2CCn3c(=O)n(C)c(=O)n3[C@H]2[C@H](O)[C@@H]2O[C@H]12 .
0.0518

Given C[C@@H](c1ccccc1)N1C(=O)[C@H]2[C@H]3[C@H](O)[C@H](O)CC(=NO[C@@H]4O[C@H](CO)[C@@H](O)[C@H](O)[C@H]4O)[C@H]3CC[C@H]2C1=O , state its recorded z-score.
-0.837

Item under review: COC(=O)[C@H](C)NC(=O)CCC1CC(OC(=O)NCc2ccc3c(c2)OCO3)CC2(CCCC(COC(=O)NCc3cccc(C(F)(F)F)c3)O2)O1 (stereo partly drawn) . Reported z-score?
0.298

Give its z-score value. Item: COC(=O)CC=C[C@@H](C)[C@@H](C=NOC(C)CN1CCCc2nc(C)c(C)cc21)OC (stereo partly drawn)
-0.222

====

I'd be grateful if you could share measured composite z-score for these entries.
- Test Details: binders of probe aFSTL3 on microarray, primary screen, stem cell growth factor project, biochemical, small-molecule microarray, fluorescence 635/667 (AID 1064);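 further: measures binding of the biotinylated anti-FSTL3 antibody to printed compounds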
- Assay Context: higher = more signal

Report composite z-score for CO[C@H]1COC(=O)[C@H](C)NC(=O)[C@@H](C)COC(=O)[C@H]2CCCN2C(=O)CC=C[C@H]1C please.
-0.403

If you can, please state the reported composite z-score value of COC(=O)CC=C[C@@H](C)[C@@H](C=NO[C@@H]1O[C@H](COC(C)=O)[C@@H](OC(C)=O)[C@H](OC(C)=O)[C@H]1OC(C)=O)OC .
-0.48

Consider the compound shown here: CC(C)CON=C1C[C@@H](O)[C@@H](O)[C@@H]2[C@@H]3C(=O)N(Cc4ccc5c(c4)OCO5)C(=O)[C@@H]3CC[C@H]12 What is its recorded composite z-score?
-0.504

Fill in: composite z-score of CCOC(=O)NN=C1C[C@@H](O)[C@@H](O)[C@@H]2[C@@H]3C(=O)N(c4ccc(F)cc4F)C(=O)[C@@H]3CC[C@@H]12 is ___
-0.333

Which composite z-score value is on record for CC(CCN1CCCCc2nc(C)c(C)cc21)=NOC[C@@H](C)[C@H](OCc1ccccc1)C(C)C ?
-0.443

Which composite z-score reading was recorded for the compound CCOC(=O)CCN1C(=O)[C@H]2[C@H]3[C@H](O)[C@H](O)CC(=NOCc4ccccc4)[C@H]3CC[C@H]2C1=O ?
1.08

I would be grateful if you could share the reported composite z-score for CON=C(C)CCC(=O)OC[C@H]1O[C@H](c2ccccc2)C=C[C@@H]1Oc1ccc(OC)cc1 .
-0.0269

Field request: composite z-score | item: CO[C@H]1COC(=O)CC=C[C@@H](C)[C@H](NS(=O)(=O)c2ccc(C)cc2)COC(=O)CCC[C@@H]1C
-0.366

Give the measured composite z-score of COC(=O)CC=C[C@@H](C)[C@@H](C=NO[C@H](C)c1cn([C@H](CO)Cc2ccccc2)nn1)OC .
-0.42

Recorded composite z-score for CCN1C(=O)[C@H]2[C@H]3[C@H](O)[C@H](O)CC(=NO[C@@H](C)c4cn([C@H](CO)Cc5ccccc5)nn4)[C@@H]3CC[C@H]2C1=O , please?
-0.687

Report composite z-score for CCOC(=O)[C@H](CC(C)C)NC(=O)CCC1CC(OC(=O)NCc2cccc3ccccc23)CC2(CCCC(COC(=O)NCCC(C)C)O2)O1 (some centres undefined) please.
-0.403

State the recorded composite z-score for this entry: COC(=O)NCC=Cc1nc(CCCO)co1
-0.596

Please give the measured composite z-score for this compound: CCCNC(=O)OC[C@H]1O[C@H](c2ccccc2)C=C[C@@H]1Oc1ccc(OC)cc1
-0.428

Which composite z-score is listed for CCC=CCCC(OC(=O)c1ccc(Br)cc1)C1=CCCCC1=O (centres undefined) ?
0.122

composite z-score for CO[C@@H]1C=CCC(=O)N2CCC[C@H]2C(=O)OC[C@@H](C)C(=O)OC[C@H]1C ?
-0.605

Item COc1cccc([C@H]2Oc3ccc(OC)cc3C(=NO[C@H](C)c3cn([C@H](CO)Cc4ccccc4)nn3)[C@@H]2O)c1 has what recorded composite z-score?
-0.129

So what's the measured composite z-score for this one? CC(C)=CCCC(C)=CCON=C1C[C@@H](O)[C@@H](O)[C@@H]2[C@@H]3C(=O)N(C(C)(C)C)C(=O)[C@@H]3CC[C@H]12
-0.28

Dear colleague, I am looking for the recorded composite z-score of the following compound: O=C1[C@H]2[C@H]3[C@H](O)[C@H](O)CC(=NO[C@@H]4O[C@H](CO)[C@@H](O)[C@H](O)[C@H]4O)[C@H]3CC[C@H]2C(=O)N1c1cccc(Oc2ccccc2)c1
-0.249

If you can, please state the reported composite z-score value of Cc1ccc(S(=O)(=O)OC[C@H]2CN3[C@H](c4ccc(Br)cc4)[C@@H](C)CC[C@H]3C(=O)O2)cc1 .
-0.307

Which measured composite z-score value corresponds to C[C@@H](c1ccccc1)N1C(=O)[C@H]2[C@H]3[C@H](O)[C@H](O)CC(=NO[C@@H]4O[C@H](CO)[C@@H](O)[C@H](O)[C@H]4O)[C@@H]3CC[C@H]2C1=O ?
-0.395

# lookup: composite z-score of CCOC(=O)C1=NO[C@]2(C=C(Br)C3(OCCCO3)[C@H]3O[C@H]32)C1
0.0733

Item C#CCCCON=C1C[C@@H](O)[C@@H](O)[C@@H]2[C@@H]3C(=O)N(c4ccc(F)cc4F)C(=O)[C@@H]3CC[C@H]12 has what recorded composite z-score?
-0.381

Name the reported composite z-score value associated with the compound CO[C@@H]1COC(=O)CC=C[C@H](C)[C@H](OC)COC(=O)[C@H](C)NC(=O)CC=C[C@H]1C
-0.729

// query composite z-score value for entry CCCNC(=O)OC[C@H]1O[C@H](CCON=C(C)CCN2CCCc3nc(C)c(C)cc32)C=C[C@@H]1Oc1ccc(OC)cc1
-0.0324

# lookup: composite z-score of CCOC(=O)[C@H](Cc1ccccc1)NC(=O)CCC1CC(OC(=O)NCc2ccc3c(c2)OCO3)CC2(CCCC(COC(=O)NCCc3ccccc3OC)O2)O1 (some centres undefined)
-0.259

Field request: composite z-score | item: CC(C)=CCCC(C)=CCON=C1C[C@@H](O)[C@@H](O)[C@@H]2[C@@H]3C(=O)N(c4ccc(F)cc4F)C(=O)[C@@H]3CC[C@H]12
-0.292

Item CC(CCN1CCCCc2nc(C)c(C)cc21)=NO[C@H](C)c1cn([C@H](CO)Cc2ccccc2)nn1 has what recorded composite z-score?
-0.476

Please look up its composite z-score: CC(=O)OC[C@H]1OC(ON=CC[C@@H]2C=C[C@H](OC(C)=O)[C@@H](COC(C)=O)O2)[C@H](OC(C)=O)[C@@H](OC(C)=O)[C@@H]1OC(C)=O (some centres undefined)
-0.314

Any idea what composite z-score was measured for COc1ccc(O[C@H]2C=C[C@@H](c3ccccc3)O[C@@H]2CON=CC[C@@H]2C=C[C@H](OC(C)=O)[C@@H](COC(C)=O)O2)cc1 ?
-0.142
